Read-out: Monocyte Chemoattractant Protein-1 (MCP1), CCL2 (gene 6347)
Assay: BSK_4H_MCP1: BioMAP Diversity Plus: 4H Assay for Monocyte Chemoattractant Protein-1 (MCP1) Biomarker Activity (AID 2283018)
Conditions: primary human endothelial cells (HUVEC); actives raise or lower the signal
The source made the active and inactive calls. The calls were made as follows: active = hit-call score of the fitted dose curve at least 0.9, where 1 is the maximum; inactive = score below 0.9.
Respond using exactly one of the listed classes: active, inactive

Here are 3 compounds together with their reported answers.
molecule_smiles=C[C@]12CC[C@@H]3c4ccc(O)cc4CC[C@H]3[C@@H]1CC[C@H]2O class_label=inactive
molecule_smiles=CCOC(=O)O[C@H](C)OC(=O)c1ccc2c(c1)cc(C(=O)NC1CCN(C(C)C)CC1)n2Cc1cc(-c2ccc(Cl)s2)on1 class_label=active
molecule_smiles=CCN(Cc1cccnc1)C(=O)c1cccc(Cl)c1[C@]1(C)C(=O)N(Cc2ccc(OC)cc2OC)c2ccc(Cl)cc21 class_label=inactive

Name the outcome recorded for O=CCCCC=O in the assay.
inactive

###

Read-out: urokinase plasminogen activator (uPA), PLAU (gene 5328)
Experiment: BSK_BE3C_uPA: BioMAP Diversity Plus: BE3C Assay for urokinase plasminogen activator (uPA) Biomarker Activity (AID 2283038)
Details: primary human bronchial epithelial cells; actives raise or lower the signal
Active and inactive are the calls of the source. Rule for the calls: active = hit-call score of the fitted dose curve at least 0.9, where 1 is the maximum; inactive = score below 0.9.
Respond using exactly one of the listed classes: active, inactive

molecule_smiles=Cc1ccc2oc(CN(Cc3ccccc3)C(=O)Nc3c(F)cc(F)cc3F)c(-c3ccc(Cl)cc3)c2c1 class_label=inactive
molecule_smiles=O=C(O)c1ccccc1-n1cc(C(=O)O)c(=O)c2cc(Nc3c(F)cc(F)cc3Cl)c(Cl)cc21 class_label=inactive
molecule_smiles=Cc1cc2c(cc1C(F)(F)F)N(C(=O)Nc1ccc(Oc3cccnc3C)nc1)CC2 class_label=active
molecule_smiles=CCCCOC(=O)c1ccc(O)cc1 class_label=inactive
molecule_smiles=CCCOC(=O)c1cc(O)c(O)c(O)c1 class_label=inactive

Name the outcome recorded for O=C1c2ccccc2C(=O)N1CCc1noc(-c2ccc(CN3CCCCCC3)s2)n1 in the assay.
inactive

Query O=C(OCCCCCCOC(=O)c1ccccc1)c1ccccc1 next
inactive

Query Cc1occc1C(=O)Nc1ccc(C(=O)N2CCC(F)(F)/C(=C\C(=O)N3CCC(N4CCCCC4)CC3)c3ccccc32)cc1 next
inactive

Query CN(C[C@@H](CC[N+]12CCC(C3CCCCC3)(CC1)CC2)c1ccc(Cl)c(Cl)c1)C(=O)c1cc(C(F)(F)F)cc(C(F)(F)F)c1 next
active

Query O=C(O)Cc1cc(I)c(Oc2ccc(O)c(I)c2)c(I)c1 next
inactive

###

Test: STM_H9_NormalizedViability: Cytotoxicity Assessment at 120 hours in the Stemina devTOX quickPredict H9 human embryonic stem cell (hESC)-based Assay (AID 2283784)
Inconclusive results are not listed. The source made the active and inactive calls. How the source made its calls: active means hit-call score of the fitted dose curve at least 0.9, where 1 is the maximum; inconclusive means response in the unintended direction; inactive means score below 0.9.
Respond using exactly one of the listed classes: TRUE for active, FALSE for inactive

Here are 3 molecules together with their reported answers.
molecule_smiles=CC(=O)N1CCN(c2ccc(OC[C@H]3CO[C@](Cn4ccnc4)(c4ccc(Cl)cc4Cl)O3)cc2)CC1 class_label=FALSE
molecule_smiles=Clc1cc(Cl)c2c(c1)N=C1CCCCCN1C2 class_label=FALSE
molecule_smiles=NC(=O)c1nc(-c2cccc(-c3cc(F)ccc3OCC(F)(F)C(F)(F)F)c2)n[nH]1 class_label=TRUE

Name the outcome recorded for CO[C@H]1/C=C/O[C@@]2(C)Oc3c(C)c(O)c4c(O)c(c(/C=N/N5CCN(C)CC5)c(O)c4c3C2=O)NC(=O)/C(C)=C\C=C\[C@H](C)[C@H](O)[C@@H](C)[C@@H](O)[C@@H](C)[C@H](OC(C)=O)[C@@H]1C in the assay.
FALSE

Query CN1C(=O)CC[C@H]1c1cccnc1 next
FALSE

Query CCCCCCCCOC(=O)c1cc(O)c(O)c(O)c1 next
TRUE

// data source = PubChem BioAssay (EPA / NIEHS)
